molecular target: human p38 kinase alpha (Homo sapiens); construct: GST (N, cleaved yes); made in house; host or cells: E. coli DH10B; assay: p38 kinase in vitro assay, phosphorylation of biotinylated PHAS-I with 32P-ATP; type: biochemical; settings: in vitro P38-alpha kinase inhibition; read-out: P38 alpha kinase IC50
Form field: IC50 (one value per entry).
API: value field is a number in nM; no unit string.

Sample answers from the record:
| compound | readout unit | readout value |
| --- | --- | --- |
| O=C(NC(Cc1ccccc1)c1[nH]nc(-c2ccc(F)cc2)c1-c1ccncc1)c1ccccc1C(F)(F)F (stereo not shown) [Example B-0844] | nM | 400 |
| COc1ccc(NC(=O)NC(Cc2ccccc2)c2[nH]nc(-c3ccc(F)cc3)c2-c2ccncc2)cc1 (stereo not shown) [Example B-0786] | nM | 24000 |
| COc1ccc(CC(=O)NC(C)c2[nH]nc(-c3ccc(F)cc3)c2-c2ccncc2)cc1OC (stereo not shown) [Example B-0548] | nM | 1770 |

So, O=C(O)c1ccccc1S(=O)(=O)NCCc1[nH]nc(-c2ccc(F)cc2)c1-c1ccncc1 [Example B-1065] ? Its IC50 was 560

So, O=S(=O)(NCCc1[nH]nc(-c2ccc(F)cc2)c1-c1ccncc1)c1cccc2cnccc12 [Example B-1118] ? Its IC50 was 330

So, O=S(=O)(NCCc1[nH]nc(-c2ccc(F)cc2)c1-c1ccncc1)c1ccc(S(=O)(=O)c2ccccc2)s1 [Example B-1116] ? Its IC50 was 410

###

target: human p38 kinase alpha (Homo sapiens, UniProt Q16539); construct: GST (N, cleaved yes); made in house; host or cells: E. coli DH10B; test: p38 kinase in vitro assay, phosphorylation of biotinylated PHAS-I with 32P-ATP; format: biochemical; conditions: @ 1.0 uM
Sequence (Q16539 whole entry): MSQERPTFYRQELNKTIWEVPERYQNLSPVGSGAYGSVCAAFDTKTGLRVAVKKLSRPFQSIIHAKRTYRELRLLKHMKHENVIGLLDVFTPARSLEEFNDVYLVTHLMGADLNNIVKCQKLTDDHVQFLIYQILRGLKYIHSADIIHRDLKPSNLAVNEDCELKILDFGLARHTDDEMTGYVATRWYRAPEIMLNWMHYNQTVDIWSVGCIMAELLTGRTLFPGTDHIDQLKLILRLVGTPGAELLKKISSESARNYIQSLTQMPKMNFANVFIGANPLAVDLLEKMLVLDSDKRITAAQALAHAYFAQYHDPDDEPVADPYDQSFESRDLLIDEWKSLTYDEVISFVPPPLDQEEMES
metric name: P38 alpha kinase % inhib @ conc. (% @)
API: value field is a number in % @; no unit string.

| compound | metric name | readout value |
| --- | --- | --- |
| O=C(NCc1[nH]nc(-c2ccc(F)cc2)c1-c1ccncc1)c1cccc(CCl)c1 [Example B-0065] | P38 alpha kinase % inhib @ conc. | 83 |

So, COc1ccc(S(=O)(=O)NCCCc2[nH]nc(-c3ccc(F)cc3)c2-c2ccncc2)cc1OC [Example B-1205] ? Its P38 alpha kinase % inhib @ conc. was 74.0

So, O=C(NCCCc1[nH]nc(-c2ccc(F)cc2)c1-c1ccncc1)Nc1ccc(F)cc1 [Example B-1211] ? Its P38 alpha kinase % inhib @ conc. was 88.0

So, O=C(NCCCc1[nH]nc(-c2ccc(F)cc2)c1-c1ccncc1)Nc1ccccc1 [Example B-1220] ? Its P38 alpha kinase % inhib @ conc. was 81.0

So, CCCNC(=O)NCCCc1[nH]nc(-c2ccc(F)cc2)c1-c1ccncc1 [Example B-1218] ? Its P38 alpha kinase % inhib @ conc. was 88.0

So, O=S(=O)(NCc1[nH]nc(-c2ccc(F)cc2)c1-c1ccncc1)c1cccc2cccnc12 [Example B-0116] ? Its P38 alpha kinase % inhib @ conc. was 73.0

So, O=S(=O)(NCCCc1[nH]nc(-c2ccc(F)cc2)c1-c1ccncc1)c1cccs1 [Example B-1203] ? Its P38 alpha kinase % inhib @ conc. was 84.0

So, CCN(CC)C(=O)NCCCc1[nH]nc(-c2ccc(F)cc2)c1-c1ccncc1 [Example B-1225] ? Its P38 alpha kinase % inhib @ conc. was 89.0

So, CCOC(=O)NCCCc1[nH]nc(-c2ccc(F)cc2)c1-c1ccncc1 [Example B-1231] ? Its P38 alpha kinase % inhib @ conc. was 94.0

So, CCOC(=O)NC(=O)NCc1[nH]nc(-c2ccc(F)cc2)c1-c1ccncc1 [Example B-0152] ? Its P38 alpha kinase % inhib @ conc. was 51.0

So, Cc1ccc(S(=O)(=O)NCCCc2[nH]nc(-c3ccc(F)cc3)c2-c2ccncc2)cc1 [Example B-1204] ? Its P38 alpha kinase % inhib @ conc. was 68.0

So, COc1ccc(NC(=O)NCCCc2[nH]nc(-c3ccc(F)cc3)c2-c2ccncc2)cc1 [Example B-1224] ? Its P38 alpha kinase % inhib @ conc. was 82.0

So, O=C(NCCCc1[nH]nc(-c2ccc(F)cc2)c1-c1ccncc1)C1CCCN1 (centres unmarked) [Example B-1232] ? Its P38 alpha kinase % inhib @ conc. was 81.0

###

Form field: pIC50 (one value per entry).
target: human p38 kinase alpha (Homo sapiens, UniProt Q16539); construct: GST (N, cleaved yes); made in house; host or cells: E. coli DH10B; assay: p38 kinase in vitro assay, phosphorylation of biotinylated PHAS-I with 32P-ATP; assay type: biochemical; settings: in vitro P38-alpha kinase inhibition; read-out: P38 alpha kinase IC50
Notebook: values listed as pIC50 are -log10 of the concentration (mol/L).

Sample answers from the record:
| molecule | pIC50 |
| --- | --- |
| Cc1noc(C)c1C(=O)NC(C)c1[nH]nc(-c2ccc(F)cc2)c1-c1ccncc1 (stereo not drawn) [Example B-0706] | 6.36 |
| CN(C(=O)NC(Cc1ccccc1)c1[nH]nc(-c2ccc(F)cc2)c1-c1ccncc1)c1ccccc1 (stereo not drawn) [Example B-0776] | 6.05 |

So, CC(NS(=O)(=O)c1ccc(CNC(=O)c2ccccc2)s1)c1[nH]nc(-c2ccc(F)cc2)c1-c1ccncc1 (stereo not drawn) [Example B-0657] ? Its pIC50 was 6.77

So, Cc1ccc(S(C)(=O)=O)cc1S(=O)(=O)NC(C)c1[nH]nc(-c2ccc(F)cc2)c1-c1ccncc1 (stereo not drawn) [Example B-0668] ? Its pIC50 was 6.57

So, O=C(NC(Cc1ccccc1)c1[nH]nc(-c2ccc(F)cc2)c1-c1ccncc1)c1cnc2ccccc2n1 (stereo not drawn) [Example B-0828] ? Its pIC50 was 5.10

###

Form field: IC50 (one value per entry).
target: human p38 kinase alpha (Homo sapiens); construct: GST (N, cleaved yes); made in house; host or cells: E. coli DH10B; assay: p38 kinase in vitro assay, phosphorylation of biotinylated PHAS-I with 32P-ATP; format: biochemical; conditions: in vitro P38-alpha kinase; read-out: P38 alpha kinase IC50
API: value field is a number in nM; no unit string.

Sample answers from the record:
| compound | test target | readout unit | IC50 |
| --- | --- | --- | --- |
| Cc1c(-c2ccncc2)c(-c2ccc(F)cc2)nn1CC(=O)NCc1ccco1 | human p38 kinase alpha (Homo sapiens) | nM | 910 |
| Cc1c(-c2ccncc2)c(-c2ccc(F)cc2)nn1CC(=O)NCCCN(C)C | human p38 kinase alpha (Homo sapiens) | nM | 1410 |
| C=CCOC(=O)N1CCC(c2[nH]nc(-c3ccc(F)cc3)c2-c2ccncc2)CC1 [Example B-1426] | human p38 kinase alpha (Homo sapiens) | nM | 190 |

So, `O=C(NCCCc1[nH]nc(-c2ccc(F)cc2)c1-c1ccncc1)NCc1cccnc1` ? Its IC50 was 120

So, `O=S(=O)(c1ccccc1C(F)(F)F)N1CCC(c2[nH]nc(-c3ccc(F)cc3)c2-c2ccncc2)CC1` ? Its IC50 was 960

So, `Cc1c(-c2ccncc2)c(-c2ccc(F)cc2)nn1CC(=O)NCCCSC1CCCCC1` ? Its IC50 was 5880

So, `O=C(C1CC1)N1CCC(c2[nH]nc(-c3ccc(F)cc3)c2-c2ccncc2)CC1` ? Its IC50 was 9

So, `Cc1ccc(S(C)(=O)=O)cc1S(=O)(=O)NCCCc1[nH]nc(-c2ccc(F)cc2)c1-c1ccncc1` ? Its IC50 was 38

So, `N#Cc1cccc(C(=O)NCCCc2[nH]nc(-c3ccc(F)cc3)c2-c2ccncc2)c1` ? Its IC50 was 32

So, `CN(C)c1cccc2c(S(=O)(=O)NCCCc3[nH]nc(-c4ccc(F)cc4)c3-c3ccncc3)cccc12` ? Its IC50 was 240

So, `CC(=O)Nc1nc(C)c(S(=O)(=O)NCCCc2[nH]nc(-c3ccc(F)cc3)c2-c2ccncc2)s1` ? Its IC50 was 40

So, `O=S(=O)(c1ccc(Cl)c(Cl)c1)N1CCC(c2[nH]nc(-c3ccc(F)cc3)c2-c2ccncc2)CC1` ? Its IC50 was 2410

So, `O=C(c1ccccc1Cl)N1CCC(c2[nH]nc(-c3ccc(F)cc3)c2-c2ccncc2)CC1` ? Its IC50 was 920

So, `O=C(NCCCc1[nH]nc(-c2ccc(F)cc2)c1-c1ccncc1)NC1CCN(Cc2ccccc2)CC1` ? Its IC50 was 47

###

biological target: human p38 kinase alpha (Homo sapiens); construct: GST (N, cleaved yes); made in house; host or cells: E. coli DH10B; experiment: p38 kinase in vitro assay, phosphorylation of biotinylated PHAS-I with 32P-ATP; type: biochemical; details: in vitro P38-alpha kinase inhibition; read-out: P38 alpha kinase IC50
Form field: pIC50 (one value per entry).
Notebook: values listed as pIC50 are -log10 of the concentration (mol/L).

Sample answers from the record:
| molecule | test target | readout value |
| --- | --- | --- |
| CC(C)OC(=O)NC(Cc1ccccc1)c1[nH]nc(-c2ccc(F)cc2)c1-c1ccncc1 (stereo not shown) | human p38 kinase alpha (Homo sapiens) | 5.80 |
| CC(NC(=O)c1cc(Cl)cc(Cl)c1)c1[nH]nc(-c2ccc(F)cc2)c1-c1ccncc1 (stereo not shown) | human p38 kinase alpha (Homo sapiens) | 5.27 |
| Cc1cccc(C)c1NC(=O)NC(Cc1ccccc1)c1[nH]nc(-c2ccc(F)cc2)c1-c1ccncc1 (stereo not shown) [Example B-0733] | human p38 kinase alpha (Homo sapiens) | 4.49 |

Pending molecule:
Reported pIC50 (human p38 kinase alpha (Homo sapiens)) for entry COc1ccccc1C(=O)NC(Cc1ccccc1)c1[nH]nc(-c2ccc(F)cc2)c1-c1ccncc1 (stereo not shown) [Example B-0843] is 6.21
